- Species on record: Rattus norvegicus
- test-summary: DrugMatrix - Regimen: Daily Repeat
- Format: toxicity, organism-based, Sprague-Dawley
- Parameters: regimen Daily Repeat, gender Male, age 6-8 weeks
- test-settings: in vivo, po, 1500 mg/kg, 72 h, tissue Blood, route oral GAVAGE, dose level High, time 3 day, vehicle .5 % CMC
ABSOLUTE EOSINOPHIL below 70 CELLS/uL gives NO; ABSOLUTE EOSINOPHIL at or above it gives YES.

[
  {
    "molecule": "CNC(=C[N+](=O)[O-])NCCSCc1ccc(CN(C)C)o1 [RANITIDINE]",
    "class-label": "NO"
  },
  {
    "molecule": "O=C(N[C@H](CO)[C@H](O)c1ccc([N+](=O)[O-])cc1)C(Cl)Cl [CHLORAMPHENICOL]",
    "class-label": "NO"
  },
  {
    "molecule": "C[C@]1(Cn2ccnn2)[C@H](C(=O)O)N2C(=O)C[C@H]2S1(=O)=O [TAZOBACTAM]",
    "class-label": "YES"
  },
  {
    "molecule": "CO[C@H]1/C=C/O[C@@]2(C)Oc3c(C)c(O)c4c(c3C2=O)C2=NC3(CCN(CC(C)C)CC3)NC2=C(NC(=O)/C(C)=C\\C=C\\[C@H](C)[C@H](O)[C@@H](C)[C@@H](O)[C@@H](C)[C@H](OC(C)=O)[C@@H]1C)C4=O [RIFABUTIN]",
    "class-label": "NO"
  },
  {
    "molecule": "Cc1ccc(S(=O)(=O)NC(=O)NN2CC3CCCC3C2)cc1 (configuration not stated) [GLICLAZIDE]",
    "class-label": "NO"
  },
  {
    "molecule": "NC(=O)c1cnccn1 [PYRAZINAMIDE]",
    "class-label": "YES"
  },
  {
    "molecule": "Cc1cc(=O)n(-c2ccccc2)n1C [ANTIPYRINE]",
    "class-label": "NO"
  }
]

----------
- Organism: Rattus norvegicus
- test-summary: DrugMatrix - Regimen: Daily Repeat
- Assay type: toxicity, organism-based, Sprague-Dawley
- Set-up: regimen Daily Repeat, gender Male, age 6-8 weeks
- test-settings: in vivo, po, 0 mg/kg, 120 h, tissue Plasma, route oral GAVAGE, dose level Control, time 5 day, vehicle .5 % CMC
Label true when ALBUMIN < 4 G/DL; otherwise false.

[
  {
    "compound": "C#C[C@]1(O)CC[C@H]2[C@@H]3CCc4cc(OC)ccc4[C@H]3CC[C@@]21C",
    "class-label": "false"
  },
  {
    "compound": "CNC(=C[N+](=O)[O-])NCCSCc1ccc(CN(C)C)o1",
    "class-label": "false"
  },
  {
    "compound": "CN1C(=O)COc2c(C(=O)NC3CN4CCC3CC4)cc(Cl)cc21 (centres undefined)",
    "class-label": "false"
  },
  {
    "compound": "C[C@](O)(CS(=O)(=O)c1ccc(F)cc1)C(=O)Nc1ccc(C#N)c(C(F)(F)F)c1 [(R)-BICALUTAMIDE]",
    "class-label": "false"
  },
  {
    "compound": "Clc1ccc2c(c1)C(N1CCNCC1)=Nc1ccccc1O2",
    "class-label": "false"
  },
  {
    "compound": "OC(CCN1CCCCC1)(c1ccccc1)C1CCCCC1 (centres undefined)",
    "class-label": "false"
  },
  {
    "compound": "C[C@]1(Cn2ccnn2)[C@H](C(=O)O)N2C(=O)C[C@H]2S1(=O)=O",
    "class-label": "false"
  },
  {
    "compound": "O=C1CCC(N2C(=O)c3ccccc3C2=O)C(=O)N1 (centres undefined) [THALIDOMIDE]",
    "class-label": "true"
  },
  {
    "compound": "N=C(N)NC(=O)c1nc(Cl)c(N)nc1N [AMILORIDE]",
    "class-label": "true"
  }
]
